system: NCI-H292 lung cancer cells; test: FDA drug screening, complete media vs cholesterol-free media without statin (TABLE 1); type: cell-based, human; details: NCI-H292 cells, cholesterol-free media without statin, FDA drug library screen
Counter-ions that a name gives are not always drawn.
OUTCOME_MEASURE: Cholesterol-free
// keep it numeric: no unit symbol after the value

Take a look at these entries with their results.
Noted for Cc1onc(-c2c(Cl)cccc2Cl)c1C(=O)N[C@@H]1C(=O)N2[C@@H]1SC(C)(C)[C@@H]2C(=O)O [Dicloxacillin (Sodium hydrate)] : its Cholesterol-free reads 0.8462

Noted for C#CCC(Cc1cnc2nc(N)nc(N)c2n1)c1ccc(C(=O)N[C@@H](CCC(=O)O)C(=O)O)cc1 (stereo partly shown) [Pralatrexate] : its Cholesterol-free reads 0.04874

Noted for Cc1cc(C2=NOC(c3cc(Cl)cc(Cl)c3)(C(F)(F)F)C2)ccc1C(=O)NCC(=O)NCC(F)(F)F (stereo not shown) : its Cholesterol-free reads 0.6434

Noted for CC(=O)Oc1cc(C(C)C)c(OCCN(C)C)cc1C [Moxisylyte (hydrochloride)] : its Cholesterol-free reads 1.028

Noted for C[C@H]1[C@@H](O)O[C@@H]2O[C@@]3(C)CC[C@H]4[C@H](C)CC[C@@H]1[C@@]24OO3 [Dihydroartemisinin] : its Cholesterol-free reads 0.5972

Next:
Noted for CN1CCc2nc(C(=O)N[C@@H]3C[C@@H](C(=O)N(C)C)CC[C@@H]3NC(=O)C(=O)Nc3ccc(Cl)cn3)sc2C1 : its Cholesterol-free reads 1.603

----------
Parameter: Complete. Scope: all listed entries.
test system: NCI-H292 lung cancer cells; assay: FDA drug screening, complete media vs cholesterol-free media without statin (TABLE 1); type: cell-based, human; conditions: NCI-H292 cells, complete media
Counter-ions that a name gives are not always drawn.
// keep it numeric: no unit symbol after the value

Take a look at these entries with their results.
Noted for c1ccc(-c2ccc(C(c3ccccc3)n3ccnc3)cc2)cc1 (stereo not shown) : its Complete reads 1.228

Noted for CC(=O)OCC(=O)[C@@]1(O)CC[C@H]2[C@@H]3CCC4=CC(=O)CC[C@]4(C)[C@H]3[C@@H](O)C[C@@]21C [Hydrocortisone acetate] : its Complete reads 0.6264

Noted for NS(=O)(=O)c1cc(C2(O)NC(=O)c3ccccc32)ccc1Cl (stereo not shown) : its Complete reads 0.9927

// next item, Complete requested
Noted for CCOc1ccc2nc(SCCN3CCOCC3)[nH]c2c1 [Fabomotizole (hydrochloride)] : its Complete reads 1.068

----------
Parameter: Difference. Scope: all listed entries.
test system: NCI-H292 lung cancer cells; test: FDA drug screening, complete media vs cholesterol-free media without statin (TABLE 1); assay type: cell-based, human; details: complete vs cholesterol-free media; >0 enhanced anti-cancer activity, about 0 neutral, <0 antagonist
Counter-ions that a name gives are not always drawn.
// keep it numeric: no unit symbol after the value

Take a look at these entries with their results.
Lab entry: NCI-H292 lung cancer cells assay, compound CCCC1O[C@@H]2C[C@H]3[C@@H]4CCC5=CC(=O)C=C[C@]5(C)[C@H]4[C@@H](O)C[C@]3(C)[C@]2(C(=O)CO)O1 (stereo partly shown) [Budesonide] , Difference = 0.34

Lab entry: NCI-H292 lung cancer cells assay, compound CCOC(=O)n1ccn(C)c1=S , Difference = 0.29

Lab entry: NCI-H292 lung cancer cells assay, compound CCc1nc(C(N)=O)c(Nc2ccc(N3CCC(N4CCN(C)CC4)CC3)c(OC)c2)nc1NC1CCOCC1 , Difference = 0.45

Lab entry: NCI-H292 lung cancer cells assay, compound CC(=O)OCC(=O)[C@@]1(O)CC[C@H]2[C@@H]3CCC4=CC(=O)C=C[C@]4(C)[C@@]3(Cl)[C@@H](Cl)C[C@@]21C [Dichlorisone acetate] , Difference = 0.24

Next:
Lab entry: NCI-H292 lung cancer cells assay, compound CCc1nn(CCCN2CCN(c3cccc(Cl)c3)CC2)c(=O)n1CCOc1ccccc1 [Nefazodone (hydrochloride)] , Difference = 0.83

Lab entry: NCI-H292 lung cancer cells assay, compound COc1ccc2c(O[C@@H]3C[C@H]4C(=O)N[C@]5(C(=O)NS(=O)(=O)C6CC6)C[C@H]5/C=C\CCCCN(C)C(=O)[C@@H]4C3)cc(-c3nc(C(C)C)cs3)nc2c1C , Difference = 0.23

Lab entry: NCI-H292 lung cancer cells assay, compound COCCOC(=O)C1=C(C)NC(C)=C(C(=O)OC/C=C/c2ccccc2)C1c1cccc([N+](=O)[O-])c1 (stereo not shown) , Difference = 0.13

Data provenance: patent US20250144067A1
